Target: CAK complex (human Cdk7, human Cyclin H, MAT-1) (Homo sapiens, UniProt P50613)
Construct: made in house; host or cells: SF-900 insect cells co-infected with Flag-Cdk7 and Bab-Cyclin H baculoviruses
Sequence (P50613 with tags, fused parts or gaps): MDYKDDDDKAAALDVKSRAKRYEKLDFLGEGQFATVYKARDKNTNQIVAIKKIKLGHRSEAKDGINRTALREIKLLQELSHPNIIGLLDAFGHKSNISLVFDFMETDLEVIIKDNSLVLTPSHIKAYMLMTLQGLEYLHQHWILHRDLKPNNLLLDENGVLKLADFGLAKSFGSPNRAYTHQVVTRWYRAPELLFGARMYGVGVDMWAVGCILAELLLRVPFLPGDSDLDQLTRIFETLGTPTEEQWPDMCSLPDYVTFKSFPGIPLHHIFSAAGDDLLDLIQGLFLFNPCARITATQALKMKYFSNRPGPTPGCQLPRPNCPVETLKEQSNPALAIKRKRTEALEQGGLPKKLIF
Sequence (as listed by the source partner): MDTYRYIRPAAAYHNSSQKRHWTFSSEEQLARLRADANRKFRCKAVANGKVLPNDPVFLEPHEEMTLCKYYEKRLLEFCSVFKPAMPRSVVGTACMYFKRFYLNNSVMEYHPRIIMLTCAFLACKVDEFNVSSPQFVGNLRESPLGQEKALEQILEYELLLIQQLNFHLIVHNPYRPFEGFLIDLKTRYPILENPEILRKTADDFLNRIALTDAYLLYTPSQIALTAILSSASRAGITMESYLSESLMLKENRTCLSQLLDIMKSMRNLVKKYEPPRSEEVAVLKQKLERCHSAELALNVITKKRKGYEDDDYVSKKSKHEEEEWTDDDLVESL
Experiment: in vitro time-resolved-fluorescence assay for the CAK kinase activity
Format: biochemical
Settings: compound 20 uM; read-out: CAK % inhib; 20 uM
Method: Cyclin Dependent Kinase Activating Kinase (CAK) is a complex of proteins that phosphorylates a well-conserved threonine (Thr) residue in all mammalian cyclin dependent kinases (cdks). The CAK complex can also phosphorylate several components of the transcriptional machinery, such as the C-terminal domain (CTD) of RNA polymerase II in the TFIIH transcription complex. […] The time-resolved-fluorescence assay for the CAK kinase activity is performed as follows. […]
Measured metric: inhibition at 20 µM (%)

Please review the following examples before continuing.
{"Compound": "CCCCNS(=O)(=O)c1cccc(Nc2ncc3nnn(-c4ccc(N5CCN(Cc6ccccc6)CC5)cc4)c3n2)c1 [Compound 54]", "Measured metric": "inhibition at 20 µM", "Measurement": 20.5}
{"Compound": "CCN(CC)CCNC(=O)c1ccc(Nc2ncc3nnn(-c4ccc5c(c4)CCC5)c3n2)cc1 [Compound 22]", "Measured metric": "inhibition at 20 µM", "Measurement": 96.9}
{"Compound": "CN(C)CC(O)COc1ccc(Nc2ncc3nnn(C4CCCCC4)c3n2)cc1 (centres unmarked) [Compound 9]", "Measured metric": "inhibition at 20 µM", "Measurement": 85.9}
{"Compound": "CCN(CC)CCCOc1ccc(Nc2ncc3nnn(-c4ccc5c(c4)CCC5)c3n2)cc1 [Compound 87]", "Measured metric": "inhibition at 20 µM", "Measurement": 99.5}
{"Compound": "CNC(=O)c1cccc(-n2nnc3cnc(Nc4cccc(-c5ccccc5)c4)nc32)c1 [Compound 41]", "Measured metric": "inhibition at 20 µM", "Measurement": 5.6}
{"Compound": "CN(C)CC(O)COc1ccc(Nc2ncc3nnn(-c4ccc5ccccc5c4)c3n2)cc1 (centres unmarked) [Compound 12]", "Measured metric": "inhibition at 20 µM", "Measurement": 92.4}
{"Compound": "CCN(CC)CCNC(=O)c1ccc(Nc2ncc3nnn(-c4ccc(N5CCN(Cc6ccccc6)CC5)cc4)c3n2)cc1 [Compound 56]", "Measured metric": "inhibition at 20 µM", "Measurement": 87.3}
{"Compound": "CCCCNS(=O)(=O)c1cccc(-n2nnc3cnc(Nc4ccc(C(=O)NCCN(CC)CC)cc4)nc32)c1 [Compound 49]", "Measured metric": "inhibition at 20 µM", "Measurement": 44.6}

P: COc1cc(-n2nnc3cnc(Nc4cccc(S(N)(=O)=O)c4)nc32)cc(OC)c1OC [Compound 44]
Q: CCN(CC)CCNC(=O)c1ccc(Nc2ncc3nnn(-c4ccc(C(=O)NCCN(CC)CC)cc4)c3n2)cc1 [Compound 52]
Of the two listed items, P and Q , which carries the larger inhibition at 20 µM figure? Respond using the label that marks the chosen record.
P
